# measurement-notes: growth inhibition of non-replicating M. tuberculosis (AID 488890);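 further: plate controls were DMSO cells for no effect and high antibiotic wells for full effect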
# settings: Mycobacterium tuberculosis non-replicating, at 25 µM, stronger effect = higher value
About 1,300 (0.41%) of roughly 320,000 compounds were called active. Another 3% or so got no clear call; they are omitted. These entries were drawn from the full list. Potency and affinity values are given separately.
So I've got a bunch of compounds here, and I need their inhibition values.

In [3]: df
Out[3]:
                                   compound  measured_value
0  COc1cc(/C=C2\SC(c3ccc(C)cc3)=NC2=O)cc(OC)c1OC           16.6%
1           COc1ncccc1-c1nnn(-c2ccccc2Br)n1            3.8%
2  Cc1nnc(N/N=C\c2ccc(-c3ccccc3[N+](=O)[O-])o2)n1N           63.6%
3  O=C(c1cccc([N+](=O)[O-])c1)N1CCN(c2cccc(Cl)c2)CC1           38.1%
4  CC(NC(=O)c1ccc2c(=O)n3c(nc2c1)CCC3)c1ccc(S(N)(=O)=O)cc1 (centres undefined)          -7.93%

// for each compound in input: emit inhibition
1. CCN1CCN(c2ccc(NC(=O)c3ccco3)cc2Cl)CC1
2. COc1cccc(C(=O)OCC(=O)N2CCc3ccccc3C2)c1
3. Cc1cc(NC(=O)COC(=O)COc2ccc3c(c2)CCC3)no1
4. COc1cc(C(=O)N2CCN(C(=O)c3ccccc3)CC2)cc(OC)c1OC
5. COc1ccccc1N1CCN(C(=O)c2ccc(Br)s2)CC1
6. Cc1cccc(C)c1NC(=O)CSc1nnc(Cc2ccccc2)o1

Reply:
["-16.6%", "43.9%", "10.3%", "-17.1%", "70.2%", "-8.32%"]

// for each compound in input: emit inhibition
1. Cc1ccc(NC(=O)CCSc2nnc(C)o2)cc1
2. Cc1ccc(/C=C/C(=O)N2CCCC(C(N)=O)C2)o1 (centres undefined)

Reply:
1: 9.37%; 2: 4.1%

// for each compound in input: emit inhibition
1. CCOC(=O)c1cn(Cc2ccccc2)nn1
2. O=C(c1ccc([N+](=O)[O-])s1)N1CCN(c2ccccc2)CC1
3. CCNC(=O)CCSc1nnc(-c2ccco2)o1
4. Cc1ccc(N2C(=O)C3C4C=CC(CNC(=S)Nc5ccc(F)cc5)(O4)C3C2=O)cc1 (centres undefined)
5. Cc1ccc(NC(=O)Cc2cccs2)cc1Cl
6. O=C(Nc1ccc(Cl)cc1)c1cccs1
7. COC(=O)c1ccc(CS(=O)(=O)c2ccccc2C)o1

Reply:
1. 74.6%
2. -13.2%
3. -8.15%
4. 54.3%
5. 13.4%
6. 76.6%
7. 2.59%

// for each compound in input: emit inhibition
1. Cc1nnc(N/N=C\c2ccc(-c3cccc(C(=O)O)c3)o2)n1N
2. Cc1ccc(NC(=O)CCC(=O)c2cccs2)cc1F
3. CN1CCN(C(c2cccnc2)c2ccc3cccnc3c2O)CC1 (centres undefined)
4. COc1cc(/C=C2\N=C(C)OC2=O)cc(OC)c1OC
5. Cc1ccc2cc(C3CC(c4ccco4)=NN3C(=O)CCC(=O)O)c(Cl)nc2c1 (centres undefined)
6. COc1ccccc1N1CCN(C(=O)c2cc(C(=O)N3CCN(c4ccccc4OC)CC3)cc([N+](=O)[O-])c2)CC1

Reply:
12.4%
14.5%
28.6%
-3.11%
2.6%
12.5%

// for each compound in input: emit inhibition
1. CCOP(=O)(OCC)C(NC(=O)C(F)(F)F)c1ccccc1 (centres undefined)
2. Oc1oc(-c2ccco2)nc1C=Nc1ccccc1
3. O=C(CCCN1CCC(c2ccccc2)C1)c1ccc2c(c1)OCCO2 (centres undefined)

Reply:
1. 3.99%
2. 17%
3. 12.3%

All values here come from PubChem BioAssay AID488890.
